System: MCF7-Cas9
Assay: Growth suppression assay (resazurin)
Assay type: cell-based
Settings: 48 hours, hydrochloride
pIC50: −log10 of the molar value. Where a name gives a salt, the structure may show the parent alone.
Recorded metric: pIC50

molecule="N#Cc1c(-c2ccncc2)[n+]([O-])c2cc(N3CCOCC3)c(F)cc2[n+]1[O-] [1a*HCl]" recorded_metric=pIC50 reported_result="< 5.00"
